PROTOCOL_DETAILS: In vivo IV/PO pharmacokinetics, dog
Set-up: species or system dog (beagle or mongrel)
PROTOCOL_CONDITIONS: beagle or mongrel, plasma, 1 mg/kg, dose iv/po mg/kg: 1 1/3, 5 1/5, read-out: Vss
QUANTITY_MEASURED: Vd (L/kg)

> print(dat)
                               given.smiles  measured
1  Cn1cc2c(-c3cc(F)c(CN4Cc5ncccc5C4=O)c(F)c3)cccc2n1       2.1
2  [2H]C1([2H])c2ncccc2C(=O)N1Cc1c(F)cc(-c2cccc3nn(C([2H])([2H])[2H])cc23)cc1F         2

====

Endpoint: IC50. System: CYP 2C9 (Homo sapiens, UniProt P11712). Items follow.
Sequence (P11712 whole entry): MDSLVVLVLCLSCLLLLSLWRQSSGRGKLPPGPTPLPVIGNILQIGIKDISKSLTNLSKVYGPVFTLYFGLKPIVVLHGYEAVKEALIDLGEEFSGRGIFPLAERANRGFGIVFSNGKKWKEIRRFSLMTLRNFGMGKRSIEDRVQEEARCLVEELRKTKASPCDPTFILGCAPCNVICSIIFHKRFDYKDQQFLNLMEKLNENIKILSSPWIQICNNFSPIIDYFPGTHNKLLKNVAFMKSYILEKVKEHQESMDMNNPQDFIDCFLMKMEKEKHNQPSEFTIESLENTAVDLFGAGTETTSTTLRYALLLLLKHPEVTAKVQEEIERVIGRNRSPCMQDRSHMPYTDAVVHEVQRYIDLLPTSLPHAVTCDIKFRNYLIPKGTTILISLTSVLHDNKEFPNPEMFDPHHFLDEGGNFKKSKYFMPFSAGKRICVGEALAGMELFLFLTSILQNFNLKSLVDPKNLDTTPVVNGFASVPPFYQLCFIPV
QUANTITY_MEASURED: IC50 (µM)

> print(dat)
                               given.smiles  censoring.operator  measured
1  Cn1cc2c(-c3cc(F)c(CN4Cc5ncccc5C4=O)c(F)c3)cccc2n1                   >        30
2  [2H]C1([2H])c2ncccc2C(=O)N1Cc1c(F)cc(-c2cccc3nn(C)cc23)cc1F                   =      17.4
3  [2H]C1([2H])c2ncccc2C(=O)N1Cc1c(F)cc(-c2cccc3nn(C([2H])([2H])[2H])cc23)cc1F                   =       8.8

====

MEASUREMENT_TARGET: UniProt Q12809
Sequence (Q12809 whole entry): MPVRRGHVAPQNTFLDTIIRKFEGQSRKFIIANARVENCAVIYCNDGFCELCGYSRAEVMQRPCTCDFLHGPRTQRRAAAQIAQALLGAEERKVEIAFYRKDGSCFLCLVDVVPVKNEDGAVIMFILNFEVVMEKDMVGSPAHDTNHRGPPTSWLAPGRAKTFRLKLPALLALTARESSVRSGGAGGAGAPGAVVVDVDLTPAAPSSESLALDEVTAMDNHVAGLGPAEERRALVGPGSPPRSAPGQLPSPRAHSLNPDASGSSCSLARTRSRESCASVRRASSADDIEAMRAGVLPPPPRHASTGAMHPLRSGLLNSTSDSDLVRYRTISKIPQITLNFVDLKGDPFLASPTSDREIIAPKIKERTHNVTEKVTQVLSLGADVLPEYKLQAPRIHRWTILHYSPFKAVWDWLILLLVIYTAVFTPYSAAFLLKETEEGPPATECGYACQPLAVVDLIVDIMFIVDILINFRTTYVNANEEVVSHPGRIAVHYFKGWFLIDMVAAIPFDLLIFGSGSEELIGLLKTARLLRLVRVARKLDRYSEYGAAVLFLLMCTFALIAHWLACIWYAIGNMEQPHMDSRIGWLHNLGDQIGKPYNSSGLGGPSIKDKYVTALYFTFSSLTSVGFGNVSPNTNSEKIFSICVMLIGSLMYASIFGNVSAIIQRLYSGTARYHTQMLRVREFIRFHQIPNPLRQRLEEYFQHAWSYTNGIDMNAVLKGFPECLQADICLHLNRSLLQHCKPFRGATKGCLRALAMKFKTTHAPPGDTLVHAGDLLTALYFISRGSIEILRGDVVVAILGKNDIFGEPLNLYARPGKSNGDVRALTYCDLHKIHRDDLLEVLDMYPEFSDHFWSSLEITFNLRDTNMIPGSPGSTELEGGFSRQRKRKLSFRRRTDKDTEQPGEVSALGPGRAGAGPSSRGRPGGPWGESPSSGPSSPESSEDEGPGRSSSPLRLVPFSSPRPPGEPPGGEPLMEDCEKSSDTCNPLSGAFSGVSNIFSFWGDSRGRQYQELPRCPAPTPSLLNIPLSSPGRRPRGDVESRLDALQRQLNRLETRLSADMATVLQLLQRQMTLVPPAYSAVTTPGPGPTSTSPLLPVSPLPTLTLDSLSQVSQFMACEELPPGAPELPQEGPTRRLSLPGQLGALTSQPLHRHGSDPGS
PROTOCOL_DETAILS: Eurofins radioligand binding
QUANTITY_MEASURED: inhibition at 10 µM (%)

> print(dat)
                               given.smiles  u  measured
1  [2H]C1([2H])c2ncccc2C(=O)N1Cc1c(F)cc(-c2cccc3nn(C([2H])([2H])[2H])cc23)cc1F  %         9

====

PROTOCOL_DETAILS: In vivo IV/PO pharmacokinetics, dog
Design: species or system dog (beagle or mongrel)
PROTOCOL_CONDITIONS: beagle or mongrel, plasma, 1 mg/kg, dose iv/po mg/kg: 1 1/3, 5 1/5, read-out: CLp
QUANTITY_MEASURED: clearance (mL/min/kg)

> print(dat)
                                   compound  measured
1  [2H]C1([2H])c2ncccc2C(=O)N1Cc1c(F)cc(-c2cccc3nn(C([2H])([2H])[2H])cc23)cc1F [compound 5]       2.6
2  Cn1cc2c(-c3cc(F)c(CN4Cc5ncccc5C4=O)c(F)c3)cccc2n1 [compound 1]         4

====

PROTOCOL_DETAILS: In vivo IV/PO pharmacokinetics, NHP
PROTOCOL_CONDITIONS: cynomolgus monkey, plasma, 1 mg/kg; NHP (cyno); dose iv/po mg/kg: 1 1/3, 5 1/5; read-out: CLp
Below, each entry is listed alongside its reported clearance.
QUANTITY_MEASURED: clearance (mL/min/kg)

> print(dat)
                               given.smiles  quantity.measured  measured
1  Cn1cc2c(-c3cc(F)c(CN4Cc5ncccc5C4=O)c(F)c3)cccc2n1          clearance       3.3
2  [2H]C1([2H])c2ncccc2C(=O)N1Cc1c(F)cc(-c2cccc3nn(C([2H])([2H])[2H])cc23)cc1F          clearance         4
